Entry source: patent US20230278972A1

System: ragweed (common ragweed, Ambrosia artemisiifolia)
Assay: Test A preemergence, ragweed
Format: in vivo
Details: Preemergence, 500 g ai/ha; 0 to 100 scale (0 no effect, 100 complete control)

- Cpd smiles: "Cc1cc(C(F)(F)F)c(NS(=O)(=O)C(F)(F)F)cc1C(=O)N(C)C"
  Study system: "ragweed (common ragweed, Ambrosia artemisiifolia)"
  Plant response rating, Ragweed: 90
- Cpd smiles: "COC1(OC)CCN(C(=O)c2cc(NS(=O)(=O)C(F)(F)F)c(C)cc2C)CC1"
  Study system: "ragweed (common ragweed, Ambrosia artemisiifolia)"
  Plant response rating, Ragweed: 80
- Cpd smiles: "COc1cc(-c2cc(NS(=O)(=O)C(F)(F)F)c(C)cc2C)c(=O)n(C)n1"
  Study system: "ragweed (common ragweed, Ambrosia artemisiifolia)"
  Plant response rating, Ragweed: 70
- Cpd smiles: "Cc1cc(C)c(-n2nccc(Cl)c2=O)cc1NS(=O)(=O)C(F)(F)F"
  Study system: "ragweed (common ragweed, Ambrosia artemisiifolia)"
  Plant response rating, Ragweed: 20
- Cpd smiles: "Cc1cc(Cl)c(NS(=O)(=O)C(F)(F)F)cc1C1=NOC2(CCCCC2)C1"
  Study system: "ragweed (common ragweed, Ambrosia artemisiifolia)"
  Plant response rating, Ragweed: 90
- Cpd smiles: "CCn1nccc(-c2cc(NS(=O)(=O)C(F)(F)F)c(C)cc2F)c1=O"
  Study system: "ragweed (common ragweed, Ambrosia artemisiifolia)"
  Plant response rating, Ragweed: 90
- Cpd smiles: "Cc1cc(C)c(C(=O)N2CCC3(CCCC3)C2)cc1NS(=O)(=O)C(F)(F)F"
  Study system: "ragweed (common ragweed, Ambrosia artemisiifolia)"
  Plant response rating, Ragweed: 90
- Cpd smiles: "Cc1cc(C)c(C2=NOC3(CCSCC3)C2)cc1NS(=O)(=O)C(F)(F)F"
  Study system: "ragweed (common ragweed, Ambrosia artemisiifolia)"
  Plant response rating, Ragweed: 90

----------
Tested on: corn (Zea mays)
Test: Test A1 postemergence, corn
Format: in vivo
Details: 31 g ai/ha, postemergence; 0 to 100 scale (0 no effect, 100 complete control)

- Compound: "Cc1cc(Cl)c(NS(=O)(=O)C(F)(F)F)cc1N1CCC2(CCCCC2)C1=O [Compound 393]"
  Corn plant response rating: 0
- Compound: "Cc1c(C2=NOC3(CCCC3)C2)cc(N(COC(=O)C(C)(C)C)S(=O)(=O)C(F)(F)F)c(C)c1C [Compound 382]"
  Corn plant response rating: 0
- Compound: "Cc1cc(C)c(N2CCC3(CCC(C)CC3)C2=O)cc1NS(=O)(=O)C(F)(F)F (stereo not shown) [Compound 402]"
  Corn plant response rating: 0
- Compound: "Cc1cc(C)c(N2Cc3cccc(C)c3C2=O)cc1NS(=O)(=O)Cl [Compound 408]"
  Corn plant response rating: 80
- Compound: "Cc1cc(C)c(N(COC(=O)C(C)(C)C)S(=O)(=O)C(F)(F)F)cc1C1=NOC(C(C)C)C1 (stereo not shown) [Compound 383]"
  Corn plant response rating: 0
- Compound: "Cc1cc(C)c(C2=NOC(C(C)C)C2)cc1NS(=O)(=O)C(F)(F)F (stereo not shown) [Compound 381]"
  Corn plant response rating: 0
- Compound: "Cc1cc(C)c(N2CC3(CCCCC3)CC2=O)cc1NS(=O)(=O)C(F)(F)F [Compound 392]"
  Corn plant response rating: 0
